The values you see were collected from ChEMBL document CHEMBL3351261.

# System: HCT-116
# TEST SUMMARY: Induction of apoptosis in human HCT116 cells assessed as reduction of mitochondrial membrane potential after 2 hrs by JC-1 staining-based fluorescence assay
# Assay type: functional, cell-based
The source made the active and inactive calls. The rule behind the calls is not given here.
The categories you may choose from are active, inactive

Solved cases below.
{"TEST SMILES": "O=C(c1ccc2c(c1)CCCC2)c1coc2ccc(O)cc12", "TESTED TARGET": "HCT-116", "ASSIGNED CATEGORY": "inactive"}
{"TEST SMILES": "c1cc(-c2ccc3c(c2)CCCC3)n2ncnc2n1", "TESTED TARGET": "HCT-116", "ASSIGNED CATEGORY": "active"}
{"TEST SMILES": "O=C(/C=C/N1CCOCC1)c1ccc2c(c1)CCCC2", "TESTED TARGET": "HCT-116", "ASSIGNED CATEGORY": "inactive"}

Please share the test call associated with O=c1[nH]c(=S)[nH]c2nccc(-c3ccc4c(c3)CCCC4)c12 .
active

Please share the test call associated with O=C(/C=C\Nc1ccc(Cl)cc1)c1ccc2c(c1)CCCC2 .
inactive
